# assayed_system: hFASN enzyme (full length) (Homo sapiens, UniProt P49327)
# Construct: 10 μL hFASN enzyme (full length, 300 ng, purified in house); made in house
# Sequence (P49327 whole entry): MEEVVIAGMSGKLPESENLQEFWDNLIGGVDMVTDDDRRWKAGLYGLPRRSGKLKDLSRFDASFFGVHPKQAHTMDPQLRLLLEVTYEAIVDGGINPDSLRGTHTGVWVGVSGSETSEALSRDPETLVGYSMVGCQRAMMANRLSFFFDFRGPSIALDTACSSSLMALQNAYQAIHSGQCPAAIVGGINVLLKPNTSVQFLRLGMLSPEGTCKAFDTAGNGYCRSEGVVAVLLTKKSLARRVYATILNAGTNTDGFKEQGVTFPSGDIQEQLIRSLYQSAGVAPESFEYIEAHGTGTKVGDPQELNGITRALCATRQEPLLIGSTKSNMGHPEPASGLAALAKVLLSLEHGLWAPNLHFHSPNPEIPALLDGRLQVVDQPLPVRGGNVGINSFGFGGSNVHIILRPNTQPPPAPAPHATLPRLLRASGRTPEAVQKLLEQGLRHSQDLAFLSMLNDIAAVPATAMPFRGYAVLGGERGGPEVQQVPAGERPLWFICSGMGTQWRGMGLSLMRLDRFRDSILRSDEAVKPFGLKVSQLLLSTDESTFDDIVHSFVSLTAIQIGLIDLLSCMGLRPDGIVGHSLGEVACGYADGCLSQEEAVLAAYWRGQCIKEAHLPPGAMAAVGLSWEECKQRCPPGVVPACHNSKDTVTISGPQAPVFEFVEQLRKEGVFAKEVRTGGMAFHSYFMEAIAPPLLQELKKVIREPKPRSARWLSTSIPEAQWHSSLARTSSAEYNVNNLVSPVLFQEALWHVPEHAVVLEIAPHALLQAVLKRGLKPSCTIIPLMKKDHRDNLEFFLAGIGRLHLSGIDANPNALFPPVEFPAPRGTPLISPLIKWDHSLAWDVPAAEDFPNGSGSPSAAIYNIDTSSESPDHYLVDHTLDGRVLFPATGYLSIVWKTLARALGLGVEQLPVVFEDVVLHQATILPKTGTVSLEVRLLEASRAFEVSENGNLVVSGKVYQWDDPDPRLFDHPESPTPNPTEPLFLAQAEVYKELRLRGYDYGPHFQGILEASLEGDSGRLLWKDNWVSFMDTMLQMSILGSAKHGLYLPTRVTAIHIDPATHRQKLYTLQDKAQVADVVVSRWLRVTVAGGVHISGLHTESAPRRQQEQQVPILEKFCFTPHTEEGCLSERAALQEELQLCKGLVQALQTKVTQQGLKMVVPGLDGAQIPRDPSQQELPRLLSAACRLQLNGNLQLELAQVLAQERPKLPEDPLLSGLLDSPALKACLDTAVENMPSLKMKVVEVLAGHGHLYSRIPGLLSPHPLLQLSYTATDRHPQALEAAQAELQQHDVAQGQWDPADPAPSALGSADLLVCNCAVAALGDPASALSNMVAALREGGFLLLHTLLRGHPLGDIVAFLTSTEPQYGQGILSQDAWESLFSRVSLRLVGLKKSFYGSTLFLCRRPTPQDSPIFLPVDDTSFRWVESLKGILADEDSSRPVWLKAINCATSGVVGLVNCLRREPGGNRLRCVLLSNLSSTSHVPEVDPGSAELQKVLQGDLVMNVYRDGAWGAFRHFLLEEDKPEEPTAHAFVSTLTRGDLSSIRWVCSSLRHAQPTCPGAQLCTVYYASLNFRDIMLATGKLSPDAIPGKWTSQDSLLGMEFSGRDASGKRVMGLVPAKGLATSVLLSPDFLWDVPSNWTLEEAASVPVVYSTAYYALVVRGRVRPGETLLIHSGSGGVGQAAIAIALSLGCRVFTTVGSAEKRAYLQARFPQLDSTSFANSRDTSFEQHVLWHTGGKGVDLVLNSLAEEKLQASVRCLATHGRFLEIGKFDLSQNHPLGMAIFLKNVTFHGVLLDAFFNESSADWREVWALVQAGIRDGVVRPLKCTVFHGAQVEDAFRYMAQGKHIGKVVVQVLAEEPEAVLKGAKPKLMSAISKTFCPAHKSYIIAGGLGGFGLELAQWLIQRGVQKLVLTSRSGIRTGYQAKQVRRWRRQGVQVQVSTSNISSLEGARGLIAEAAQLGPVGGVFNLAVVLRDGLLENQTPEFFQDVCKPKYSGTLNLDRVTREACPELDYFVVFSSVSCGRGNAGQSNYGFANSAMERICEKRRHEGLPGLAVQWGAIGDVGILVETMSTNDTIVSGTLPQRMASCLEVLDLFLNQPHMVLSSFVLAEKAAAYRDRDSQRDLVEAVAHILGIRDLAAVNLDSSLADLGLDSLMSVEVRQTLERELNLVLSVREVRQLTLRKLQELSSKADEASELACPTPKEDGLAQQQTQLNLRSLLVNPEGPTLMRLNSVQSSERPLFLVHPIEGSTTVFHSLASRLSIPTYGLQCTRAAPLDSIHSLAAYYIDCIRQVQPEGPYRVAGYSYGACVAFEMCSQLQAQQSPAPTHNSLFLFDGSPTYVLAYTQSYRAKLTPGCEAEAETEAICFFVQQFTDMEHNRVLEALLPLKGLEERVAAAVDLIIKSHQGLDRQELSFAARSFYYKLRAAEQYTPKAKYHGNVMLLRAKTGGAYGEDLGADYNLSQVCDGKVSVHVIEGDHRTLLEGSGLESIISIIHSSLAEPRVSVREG
# test_protocol: Fatty Acid Synthase (FASN) Inhibition Scintillation Proximity Assay
# Format: biochemical
# assay_context: read-out: FASN % Effect @1E−05M

[
  {
    "query_smiles": "COc1ccc(C(=O)Nc2cc(C(=O)N3CCC(c4ccc(-c5cnn(C)c5)cc4)CC3)ccc2C)cn1",
    "unit_info": "%",
    "inhibition at 10 µM": 104
  },
  {
    "query_smiles": "COc1ccc(C(=O)Nc2cc(C(=O)N3CCC(c4ccc(-c5cnn(C)c5)cc4)CC3)ccc2C)cc1O",
    "unit_info": "%",
    "inhibition at 10 µM": 107
  },
  {
    "query_smiles": "Cc1ccc(C(=O)N2CCC(c3ccc(-c4cnn(C)c4)cc3)CC2)cc1NC(=O)C1CN(C2CCCCC2)C1",
    "unit_info": "%",
    "inhibition at 10 µM": 103
  },
  {
    "query_smiles": "CCCCCN1CCC(C(=O)Nc2cc(C(=O)N3CCC(c4ccc(-c5cnn(C)c5)cc4)CC3)ccc2C)CC1",
    "unit_info": "%",
    "inhibition at 10 µM": 110
  },
  {
    "query_smiles": "Cc1ccc(C(=O)N2CCC(c3ccc(-c4cnn(C)c4)cc3)CC2)cc1NC(=O)c1ccc(F)cc1Cl",
    "unit_info": "%",
    "inhibition at 10 µM": 107
  },
  {
    "query_smiles": "Cc1ccc(C(=O)N2CCC(c3ccc(-c4cnn(CCO)c4)cc3)CC2)cc1NC(=O)c1ccc(NC(C)C)nc1",
    "unit_info": "%",
    "inhibition at 10 µM": 112
  },
  {
    "query_smiles": "Cc1ccc(C(=O)N2CCC(c3ccc(-c4cnn(C)c4)cc3)CC2)cc1NC(=O)c1nccs1",
    "unit_info": "%",
    "inhibition at 10 µM": 100
  },
  {
    "query_smiles": "Cc1ccc(C(=O)N2CC(c3ccc(-c4cnn(C)c4)cc3)C2)cc1NC(=O)c1ccc(Cl)nc1",
    "unit_info": "%",
    "inhibition at 10 µM": 109
  }
]

* * *

# assayed_system: hFASN enzyme (full length) (Homo sapiens, UniProt P49327)
# Construct: 10 μL hFASN enzyme (full length, 300 ng, purified in house); made in house
# test_protocol: Fatty Acid Synthase (FASN) Inhibition Scintillation Proximity Assay
# Type: biochemical
# assay_context: read-out: FASN % Effect @1E−05M

[
  {
    "molecule": "Cc1ccc(C(=O)N2CC[C@H](c3ccc(-c4ccnn4C)cc3)[C@H](C)C2)cc1NC(=O)c1ccc(NC(C)C)nc1 (racemic) [Compound #76]",
    "unit_info": "%",
    "inhibition at 10 µM": 91
  },
  {
    "molecule": "Cc1ccc(C(=O)N2CC(c3ccc(-c4cccnc4)cc3)C2)cc1NC(=O)c1ccc(NC(C)C)nc1 [Compound 10]",
    "unit_info": "%",
    "inhibition at 10 µM": 103
  },
  {
    "molecule": "Cc1ccc(C(=O)N2CCC(c3ccc(-c4cnoc4)cc3)CC2)cc1NC(=O)c1ccc(NC(C)C)nc1 [Compound 51]",
    "unit_info": "%",
    "inhibition at 10 µM": 110
  },
  {
    "molecule": "Cc1ccc(C(=O)N2CCC(c3ccc(-c4cnn(C)c4)cc3)CC2)cc1NC(=O)[C@@H]1CCCN1 [Compound 171]",
    "unit_info": "%",
    "inhibition at 10 µM": 84
  },
  {
    "molecule": "CCCCN1CCC(C(=O)Nc2cc(C(=O)N3CCC(c4ccc(-c5cnn(C)c5)cc4)CC3)ccc2C)C1 (stereo not drawn) [Compound 212]",
    "unit_info": "%",
    "inhibition at 10 µM": 108
  },
  {
    "molecule": "Cc1ccc(C(=O)N2CCC(c3ccc(-c4cnn(-c5ccncc5)c4)cc3)CC2)cc1NC(=O)c1ccc(NC(C)C)nc1 [Compound 272]",
    "unit_info": "%",
    "inhibition at 10 µM": 112
  },
  {
    "molecule": "Cc1ccc(C(=O)N2CCC(c3ccc(-c4cnn(C)c4)cc3)C2)cc1NC(=O)c1ccc(NC(C)C)nc1 (stereo not drawn) [Compound 237]",
    "unit_info": "%",
    "inhibition at 10 µM": 101
  },
  {
    "molecule": "Cc1cccc(-c2ccc(C3CCN(C(=O)c4ccc(C)c(NC(=O)c5ccc(NC(C)C)nc5)c4)CC3)cc2)c1 [Compound 233]",
    "unit_info": "%",
    "inhibition at 10 µM": 72
  },
  {
    "molecule": "CC(C)Nc1ccc(C(=O)Nc2cc(C(=O)N3CC(c4ccc(-c5ccnn5C)cc4)C3)ccc2Cl)cn1 [Compound 108]",
    "unit_info": "%",
    "inhibition at 10 µM": 103
  },
  {
    "molecule": "Cc1ccc(C(=O)N2CC(c3ccc(-c4cnn(C)c4)cc3)C2)cc1NC(=O)c1ccncc1 [Compound 139]",
    "unit_info": "%",
    "inhibition at 10 µM": 101
  },
  {
    "molecule": "CC(C)Nc1ccc(C(=O)Nc2cc(C(=O)N3CCC(c4ccc(-c5cnn(C)c5)cc4)CC3)ccc2NC(C)C)cn1 [Compound 284]",
    "unit_info": "%",
    "inhibition at 10 µM": 95
  },
  {
    "molecule": "Cc1ccc(C(=O)N2CCC(c3ccc(-c4cnn(-c5cccnc5)c4)cc3)CC2)cc1NC(=O)c1ccc(NC(C)C)nc1 [Compound 261]",
    "unit_info": "%",
    "inhibition at 10 µM": 107
  }
]

* * *

IC50 listing for selected compounds.
# Test system: A2780 ovarian cells
# test_protocol: A2780 Ovarian Cell Proliferation Assay in Lipid Reduced Medium, without Palmitate
# Type: cell-based
# assay_context: Homo sapiens, A2780; lipid reduced medium, without palmitate, 96 h, MTT; read-out: Proliferation A2780 w/o Palmitate pIC50 (converted)

[
  {
    "compound": "Cc1ccc(C(=O)N2CCC(c3ccc(-c4cnn(C)c4)cc3)CC2)cc1NC(=O)c1sccc1Cl [Compound 99]",
    "unit_info": "nM",
    "IC50": 389
  },
  {
    "compound": "Cc1ccc(C(=O)N2CCC(c3ccc(-c4cnn(C)c4)cc3)C2)cc1NC(=O)c1ccc(Cl)nc1 (stereo not drawn) [Compound 203]",
    "unit_info": "nM",
    "IC50": 372
  },
  {
    "compound": "Cc1ccc(C(=O)N2CCC(c3ccc(-c4cnn(CC5CCC5)c4)cc3)CC2)cc1NC(=O)c1ccc(NC(C)C)nc1 [Compound 221]",
    "unit_info": "nM",
    "IC50": 91.2
  },
  {
    "compound": "Cc1ccc(C(=O)N2CCC(c3ccc(-c4cnn(C)c4)cc3)CC2)cc1NC(=O)C1CCN(C(C)C)CC1 [Compound #182]",
    "unit_info": "nM",
    "IC50": 45.7
  },
  {
    "compound": "Cc1ccc(C(=O)N2CCC(c3ccc(-c4cnn(C)c4)cc3)CC2)cc1NC(=O)C1CCN(CC(C)C)CC1 [Compound 179]",
    "unit_info": "nM",
    "IC50": 57.5
  },
  {
    "compound": "COc1ccc(C(=O)N2CC(c3ccc(-c4cnn(C)c4)cc3)C2)cc1NC(=O)c1ccc(Cl)nc1 [Compound 183]",
    "unit_info": "nM",
    "IC50": 407
  }
]

* * *

# assayed_system: T1, FASN Keto-reductase Domain (Homo sapiens, UniProt P49327)
# T1 construct: 10 μL hFASN enzyme (full length, 300 ng, purified in house) and 360 μM NADPH; made in house
# T1 sequence (P49327 whole entry, the tested form may be a part): as the sequence (P49327 whole entry) above
# test_protocol: Fatty Acid Synthase Keto-Reductase Domain (FASN KR) Inhibition
# Type: biochemical
# assay_context: mean where tested more than once; read-out: FASN K-R Domain pIC50 (converted)
# Protocol: 10 μL assay buffer (100 mM KH2PO4 pH 7.5) was added to a 384-well clear plate (costar 3702). […] Then, 10 μL 180 mM ethyl acetoacetate (Aldrich 688983) was added, mixed and immediately thereafter, the absorbance at 340 nm (T1) by Multiscan (Labsystems) was measured. After 20 minutes incubation at room temperature the plate was measured again (T2). The decrease in absorbance was calculated as (Absorbance before incubation T1)−(Absorbance following incubation T2). […]

[
  {
    "query_smiles": "Cc1ccc(C(=O)N2CCC(c3ccc(-c4cnn(C)c4)cc3)CC2)cc1NC(=O)c1ccc(N2CCOCC2)nc1",
    "IC50": "25.1 nM"
  },
  {
    "query_smiles": "Cc1ccc(C(=O)N2CCC(c3ccc(-c4cnn(C)c4)cc3)CC2)cc1NC(=O)c1ccc(Cl)c(Cl)c1",
    "IC50": "77.6 nM"
  },
  {
    "query_smiles": "Cc1ccc(C(=O)N2CCC(c3ccc(-c4ccccc4F)cc3)CC2)cc1NC(=O)c1ccc(NC(C)C)nc1",
    "IC50": "282 nM"
  },
  {
    "query_smiles": "Cc1ccc(C(=O)N2CCC(c3ccc(-c4cnn(C)c4)cc3)CC2)cc1NC(=O)[C@H]1CCCN1C",
    "IC50": "457 nM"
  },
  {
    "query_smiles": "COc1cc(C(=O)Nc2cc(C(=O)N3CCC(c4ccc(-c5cnn(C)c5)cc4)CC3)ccc2C)cc(Cl)n1",
    "IC50": "148 nM"
  },
  {
    "query_smiles": "Cc1ccc(C(=O)N2CC(c3ccc(-c4ccnn4C)cc3)C2)cc1NC(=O)c1ccc(N2CCOCC2)nc1",
    "IC50": "28.2 nM"
  },
  {
    "query_smiles": "COc1ccc(C(=O)N2CCC(c3ccc(-c4cnn(C)c4)cc3)CC2)cc1NC(=O)c1ccc(NC(C)C)nc1",
    "IC50": "115 nM"
  }
]
